These entries and their values trace back to the supplement of paper PMC12350171.

- Test system: Vibrio cholerae
- Procedure Details: growth AUC normalised to DMSO control (fraction of control); higher = less growth inhibition, active = hit call of the paper
- Measurement Conditions: 20 µM
Counter-ions that a name gives are not always drawn.
Catalogue of growth AUC normalised to DMSO control readings, one per entry.

{"columns": ["Compound", "growth AUC normalised to DMSO control"],
 "data": [
  ["Cc1ccccc1N1C(=O)c2cc(S(N)(=O)=O)c(Cl)cc2NC1C (stereo not drawn) [Metolazone]", 0.996],
  ["CN(C)CC/C=C1/c2ccccc2Sc2ccc(Cl)cc21 [Chlorprothixene hydrochloride]", 0.817],
  ["Cc1onc(-c2ccccc2)c1C(=O)N[C@@H]1C(=O)N2[C@@H]1SC(C)(C)[C@@H]2C(=O)O [Oxacillin sodium]", 0.961]
]}

###

- Test system: Salmonella enterica typhimurium
- Procedure Details: growth AUC normalised to DMSO control (fraction of control); higher = less growth inhibition, active = hit call of the paper
- Measurement Conditions: 20 µM
Counter-ions that a name gives are not always drawn.
Parameter growth AUC normalised to DMSO control: see the listing below.
Endpoint: growth AUC normalised to DMSO control

{"columns": ["Molecule", "Reading"],
 "data": [
  ["Cc1ncc(CO)c(CO)c1O [Pyridoxine hydrochloride]", 0.992],
  ["CC1=C(C(=O)O)N2C(=O)[C@@H](NC(=O)[C@H](N)c3ccc(O)cc3)[C@H]2SC1", 0.979],
  ["COc1cc(C(=O)NCc2ccc(OCCN(C)C)cc2)cc(OC)c1OC [Trimethobenzamide hydrochloride]", 1.02],
  ["NC(N)=Nc1nc(CSCC/C(N)=N/S(N)(=O)=O)cs1", 1],
  ["Cc1cc(C(C)(C)C)c(O)c(C)c1CC1=NCCN1 [Oxymetazoline hydrochloride]", 0.997],
  ["CN(C)CCCN1c2ccccc2Sc2ccc(Cl)cc21 [Chlorpromazine hydrochloride]", 0.996],
  ["Cc1c(-c2ccccc2)oc2c(C(=O)OCCN3CCCCC3)cccc2c1=O [Flavoxate hydrochloride]", 1],
  ["CN(C)CCC[C@@]1(c2ccc(F)cc2)OCc2cc(C#N)ccc21 [Escitalopram oxalate]", 1],
  ["CN1Cc2c(N)cccc2C(c2ccccc2)C1 (stereo not given) [Nomifensine maleate]", 0.977],
  ["Cn1c(=O)c2c(ncn2CC2OCCO2)n(C)c1=O", 1],
  ["C(=C\\c1ccccc1)/CN1CCN(C(c2ccccc2)c2ccccc2)CC1", 0.986],
  ["Clc1ccc(C(c2ccccc2Cl)C(Cl)Cl)cc1 (stereo not given)", 1],
  ["O=C(OCC(O)CO)c1ccccc1Nc1ccnc2cc(Cl)ccc12 (stereo not given) [Glafenine hydrochloride]", 0.981],
  ["C[C@]12C=CC(=O)C=C1CC[C@@H]1[C@@H]2C(=O)C[C@@]2(C)[C@H]1CC[C@]2(O)C(=O)CO", 1.01],
  ["CC(C)COCC(CN(Cc1ccccc1)c1ccccc1)N1CCCC1 (stereo not given) [Bepridil hydrochloride]", 1],
  ["CN(C)C/C=C(/c1ccc(Br)cc1)c1cccnc1 [Zimelidine dihydrochloride monohydrate]", 0.996],
  ["NC(CO)C(=O)NNCc1ccc(O)c(O)c1O (stereo not given) [Benserazide hydrochloride]", 1],
  ["NCCCCCC(=O)O", 0.999],
  ["CC1CNc2c(cccc2S(=O)(=O)N[C@@H](CCCNC(=N)N)C(=O)N2CC[C@@H](C)C[C@@H]2C(=O)O)C1 (stereo not given in full)", 1],
  ["COc1ccc(CN(CCN(C)C)c2ccccn2)cc1 [Pyrilamine maleate]", 0.974],
  ["CCOC(=O)NNc1nncc2ccccc12 [Todralazine hydrochloride]", 1.01],
  ["CC(=O)S[C@@H]1CC2=CC(=O)CC[C@]2(C)[C@H]2CC[C@@]3(C)[C@@H](CC[C@@]34CCC(=O)O4)[C@H]12", 0.983],
  ["CN(C)CCOC(=O)COc1ccc(Cl)cc1 [Meclofenoxate hydrochloride]", 0.977],
  ["OCCN(CCO)c1nc(N2CCCCC2)c2nc(N(CCO)CCO)nc(N3CCCCC3)c2n1", 1.01],
  ["CCCc1nc(C)c2c(=O)nc(-c3cc(S(=O)(=O)N4CCN(CC)CC4)ccc3OCC)[nH]n12", 1.01]
]}
